Listing of IC50 toward UniProtKB P35968, each taken from a published source.
Sequence (P35968 whole entry): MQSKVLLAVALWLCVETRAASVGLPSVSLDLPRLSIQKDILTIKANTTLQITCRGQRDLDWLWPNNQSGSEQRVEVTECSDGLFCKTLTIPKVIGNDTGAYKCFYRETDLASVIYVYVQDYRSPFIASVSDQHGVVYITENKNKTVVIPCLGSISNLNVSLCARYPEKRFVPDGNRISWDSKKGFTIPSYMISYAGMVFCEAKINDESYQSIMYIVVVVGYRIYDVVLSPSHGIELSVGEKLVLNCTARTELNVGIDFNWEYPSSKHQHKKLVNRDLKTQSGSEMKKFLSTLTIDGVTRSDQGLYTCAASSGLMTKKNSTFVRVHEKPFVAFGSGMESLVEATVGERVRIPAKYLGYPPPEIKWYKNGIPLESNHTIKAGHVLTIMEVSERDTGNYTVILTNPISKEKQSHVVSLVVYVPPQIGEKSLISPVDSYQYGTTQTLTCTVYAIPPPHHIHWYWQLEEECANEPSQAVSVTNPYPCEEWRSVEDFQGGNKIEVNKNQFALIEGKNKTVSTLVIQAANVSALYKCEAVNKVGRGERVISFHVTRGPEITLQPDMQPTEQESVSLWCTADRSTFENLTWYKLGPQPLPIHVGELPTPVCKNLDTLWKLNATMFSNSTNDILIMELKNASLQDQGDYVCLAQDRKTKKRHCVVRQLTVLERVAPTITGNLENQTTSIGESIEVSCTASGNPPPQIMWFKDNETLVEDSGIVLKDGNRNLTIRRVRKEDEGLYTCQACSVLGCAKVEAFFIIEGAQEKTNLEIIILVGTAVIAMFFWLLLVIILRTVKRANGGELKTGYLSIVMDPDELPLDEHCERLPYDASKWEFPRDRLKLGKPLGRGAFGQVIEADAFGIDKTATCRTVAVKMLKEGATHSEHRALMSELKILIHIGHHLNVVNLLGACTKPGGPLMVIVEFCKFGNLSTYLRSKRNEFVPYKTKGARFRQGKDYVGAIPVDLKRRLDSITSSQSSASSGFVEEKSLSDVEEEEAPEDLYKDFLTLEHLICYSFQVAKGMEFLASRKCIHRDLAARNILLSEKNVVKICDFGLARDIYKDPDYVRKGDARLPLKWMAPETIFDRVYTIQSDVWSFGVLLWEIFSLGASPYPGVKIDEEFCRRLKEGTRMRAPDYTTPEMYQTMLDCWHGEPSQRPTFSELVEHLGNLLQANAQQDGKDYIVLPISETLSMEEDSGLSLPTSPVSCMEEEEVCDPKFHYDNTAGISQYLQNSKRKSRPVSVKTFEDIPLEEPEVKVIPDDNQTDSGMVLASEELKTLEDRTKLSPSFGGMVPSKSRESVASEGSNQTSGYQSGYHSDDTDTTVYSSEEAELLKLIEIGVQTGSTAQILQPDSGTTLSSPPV
Property Name: IC50 (nM)

[
  {
    "Compound": "CN(C)CC(O)COc1ncnc2ccccc12 (stereo not given)",
    "Uom": "nM",
    "Value": 63
  }
]

A: N#Cc1ccc2c(c1)NC(=O)C2C(=Nc1ccc(CN2CCCCC2)cc1)c1ccccc1 (stereo not given)
B: Cc1c2ccc(Nc3ccnc(Nc4ccc(S(=O)(=O)NC(=N)N)cc4)n3)cc2nn1C
Asked: Between the entries labeled A and B , whose measured IC50 is lower? State the label of the item chosen.
Given back: A
(A: 248 nM, B: 1340 nM)
